The measured values listed here are drawn from the supplement of paper PMC11451515.

System: NOMO1
measurement.protocol: cell viability relative to DMSO control; higher = less cytotoxic
condition.context: RPMI 5 mM glucose + 10% FBS; 48 h; 0.00234 µM
quantity.measured: cell viability (%)
Quick reminder: number only, in %, skip the unit.

Fill in cell viability for record "Nc1c2c(nc3ccccc13)CCCC2"
123

Specify reported cell viability for the compound shown: "O=P(O)(O)C(O)(Cn1ccnc1)P(=O)(O)O"
111

Input "Cc1coc2c1C(=O)C(=O)c1c-2ccc2c1CCCC2(C)C" , output reported cell viability.
98.7

Please supply the value of reported cell viability for the item "CNCC[C@H](Oc1cccc2ccccc12)c1cccs1"
122

Entry COc1ccc2c(c1)[C@]13CCCCC1C(C2)N(C)CC3 (stereo partly specified) needs its cell viability filled in; supply it.
117

Let me know recorded cell viability for "CCCNC(=O)Nc1ccc(Oc2ncnc3cc(OC)c(OC)cc23)cc1Cl" , thanks.
90.7
